Values from patent US7883846B2

# Assay system: rat TRPM8 (Rattus norvegicus)
# Construct: expressed in transfected cells; host or cells: dissociated hippocampal neurons from E19 rats, calcium phosphate transfection of pCI-fluor plasmid
# Sequence (Q8R455 whole entry): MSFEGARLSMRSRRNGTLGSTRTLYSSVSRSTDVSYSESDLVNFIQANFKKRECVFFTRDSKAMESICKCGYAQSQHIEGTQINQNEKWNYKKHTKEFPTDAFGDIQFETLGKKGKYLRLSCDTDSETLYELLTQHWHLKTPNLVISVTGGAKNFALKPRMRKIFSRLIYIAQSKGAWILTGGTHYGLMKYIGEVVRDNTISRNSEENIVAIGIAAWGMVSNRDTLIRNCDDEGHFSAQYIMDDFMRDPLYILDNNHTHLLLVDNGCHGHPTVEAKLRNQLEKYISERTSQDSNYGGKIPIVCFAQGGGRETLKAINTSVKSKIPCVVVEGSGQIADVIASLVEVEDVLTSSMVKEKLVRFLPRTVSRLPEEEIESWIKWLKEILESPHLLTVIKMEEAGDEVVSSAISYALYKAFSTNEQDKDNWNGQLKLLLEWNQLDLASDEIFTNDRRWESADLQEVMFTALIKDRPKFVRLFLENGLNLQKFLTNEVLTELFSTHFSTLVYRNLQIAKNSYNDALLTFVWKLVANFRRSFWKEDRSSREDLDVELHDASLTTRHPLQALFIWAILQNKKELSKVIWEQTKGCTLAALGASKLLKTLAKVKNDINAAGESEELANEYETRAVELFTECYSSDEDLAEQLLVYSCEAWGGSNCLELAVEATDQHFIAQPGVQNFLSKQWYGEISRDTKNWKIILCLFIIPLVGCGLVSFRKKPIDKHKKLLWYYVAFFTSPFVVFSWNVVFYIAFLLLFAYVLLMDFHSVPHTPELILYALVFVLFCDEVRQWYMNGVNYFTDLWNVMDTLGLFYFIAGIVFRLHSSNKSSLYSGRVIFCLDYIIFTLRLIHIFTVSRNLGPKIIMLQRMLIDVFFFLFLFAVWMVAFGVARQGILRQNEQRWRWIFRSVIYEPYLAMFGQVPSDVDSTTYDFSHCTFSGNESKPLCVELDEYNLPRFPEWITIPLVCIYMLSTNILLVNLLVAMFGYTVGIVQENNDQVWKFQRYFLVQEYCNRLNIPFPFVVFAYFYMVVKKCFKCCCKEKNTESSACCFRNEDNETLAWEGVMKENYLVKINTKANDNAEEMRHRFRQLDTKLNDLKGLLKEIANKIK
# Measurement protocol: Pharmacological stimulation of transfected hippocampal neurons, whole-cell patch clamp (TRPM8)
# Assay type: cell-based
# Condition description: whole-cell voltage clamp, holding potential −65 mV; results not shown; read-out: half-maximal response
Measure: EC50 (µM)
Provide the reading as a plain figure in µM.

Answer briefly: EC50 recorded on rat TRPM8 (Rattus norvegicus) for CC(C)[C@@H]1CC[C@@H](C)C[C@H]1O 150
